- TESTED_SYSTEM: HIV-1 envelope proteins of the panel of 12 global reference pseudovirus strains of HIV-1 ("global panel")
ENDPOINT_NAME: geometric mean IC50, TZM-bl cell pseudovirus neutralization assay

Some entries whose results are on file:
Input line: If you can, please state the reported geometric mean IC50, TZM-bl cell pseudovirus neutralization assay value of 04_B09 (antibody, V domains shown) VH: SVRLDQSGTAVKKPGASVRVSCRAPDSFTVYRPRLSAYFIGEFNIHWLRQAPGQGLEWLGFVNIFRGAVKYSSAFRGRITITRDTSLETSYLDLGALKPDDTATYFCAWDKNVDDNPWRLDSWGQGTLVVVSS VL: YIQVTQSPSSLSASVGDTITVACQVSQDVGWAVNWYHQRPGRPPYNLIYTTSNLAPGVASRFRGTRVATYFTLTINNLLPEDVGTYYCQVFESFAPGGTRVDLR .
Output line: < 0.05 µg/mL

Input line: If you can, please state the reported geometric mean IC50, TZM-bl cell pseudovirus neutralization assay value of 04_A06 (antibody, V domains shown) VH: SVRLDQSGTAVKKPGASVRVSCRAPDSFTVYRPRLSAYFIGEFNIHWLRQAPGQGLEWLGFVNIFRGAVKYSSRFQGRITITRDTSSETSYLDLGALKADDTATYYCAWDKNVDDNPWRLDSWGQGTLVIVSS VL: YIQVTQSPSSLSASIGDTITVACEVSQDVGWAVNWYHQRPGRPPYNLIYTAHNLAPGVASRFRGSRVGTYFTLTINNLLPEDVGTYYCQVFDSFAPGGTRVDLR .
Output line: 0.038 µg/mL

Please examine the following record next.
Input line: If you can, please state the reported geometric mean IC50, TZM-bl cell pseudovirus neutralization assay value of 05_C07 (antibody, V domains shown) VH: HVQLWQSGAEVKKPGASVKISCSAWGFGTRSGYTFRDYRIHWVRQVPRQGFEWMGHLHPAYGAVNYARQFQGRIIMTREVSFDGSGGTVYMELRSLRSDDTATYYCVTHKLYDGEDASDLTWRLDPWGQGTRVTVSS VL: GVSLTQSPASLCASVGDRVTFTCQASQDITNAINWYQLRPGKTPKLMIHDGSTLRRGVPSRFAGSGFGTRFTFTIDNLQPEDLATYFCQHYEFFPPAGTQVDFN .
Output line: < 0.05 µg/mL
